TEST SYSTEM: Serine/threonine-protein kinase PAK 4 (Homo sapiens) (UniProt O96013)
Sequence (O96013 whole entry, looked up): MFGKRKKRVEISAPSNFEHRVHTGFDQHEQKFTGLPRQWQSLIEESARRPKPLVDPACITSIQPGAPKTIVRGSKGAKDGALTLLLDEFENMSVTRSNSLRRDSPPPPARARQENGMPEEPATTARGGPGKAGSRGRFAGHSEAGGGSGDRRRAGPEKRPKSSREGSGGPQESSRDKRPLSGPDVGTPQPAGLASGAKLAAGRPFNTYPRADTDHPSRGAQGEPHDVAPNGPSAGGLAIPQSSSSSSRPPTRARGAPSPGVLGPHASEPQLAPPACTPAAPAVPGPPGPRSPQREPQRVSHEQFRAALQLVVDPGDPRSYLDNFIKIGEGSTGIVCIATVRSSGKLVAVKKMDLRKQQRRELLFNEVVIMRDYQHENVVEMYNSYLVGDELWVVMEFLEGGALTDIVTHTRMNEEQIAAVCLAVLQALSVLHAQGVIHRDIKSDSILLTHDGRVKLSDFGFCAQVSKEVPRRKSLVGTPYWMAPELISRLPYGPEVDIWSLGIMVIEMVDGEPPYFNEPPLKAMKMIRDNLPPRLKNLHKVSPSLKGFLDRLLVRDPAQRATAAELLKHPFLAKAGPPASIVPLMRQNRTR
MEASUREMENT PROTOCOL: Inhibition of human PAK4 assessed as residual activity at 1 uM relative to control
MEASUREMENT KIND: Activity (%)

INSERT INTO measurements (item_smiles, endpoint_result) VALUES
  ('CN(C)S(=O)(=O)c1ccc2c(c1)/C(=C/c1cn(C)c3ccc(O)cc13)C(=O)N2', 90),
  ('COc1ccc2c(c1)c(/C=C1\C(=O)Nc3ccc(S(=O)(=O)N(C)C)cc31)cn2C', 99),
  ('COc1ccc2[nH]cc(/C=C3\C(=O)Nc4ccc(S(N)(=O)=O)cc43)c2c1', 82),
  ('CNS(=O)(=O)c1ccc2c(c1)/C(=C/c1cn(C)c3ccc(OC)cc13)C(=O)N2', 91),
  ('COc1ccc2c(c1)c(/C=C1\C(=O)Nc3ccc(S(N)(=O)=O)cc31)cn2C', 68),
  ('Cn1cc(/C=C2\C(=O)Nc3ccc(S(N)(=O)=O)cc32)c2ccccc21', 78);
